- Test System: Aurora kinase B (Homo sapiens, UniProt Q96GD4)
- Sequence (Q96GD4 whole entry): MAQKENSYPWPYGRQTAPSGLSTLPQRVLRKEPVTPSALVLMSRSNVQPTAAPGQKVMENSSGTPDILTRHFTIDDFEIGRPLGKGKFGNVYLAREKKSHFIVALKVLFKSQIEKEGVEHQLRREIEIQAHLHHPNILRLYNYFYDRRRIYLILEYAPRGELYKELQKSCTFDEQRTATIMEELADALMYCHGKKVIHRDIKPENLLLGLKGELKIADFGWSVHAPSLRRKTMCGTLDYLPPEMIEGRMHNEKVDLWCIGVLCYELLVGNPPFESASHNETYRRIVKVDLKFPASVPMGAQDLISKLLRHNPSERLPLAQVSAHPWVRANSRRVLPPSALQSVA
Measure Name: IC50

>>> meas_value("CCN1CCN(Cc2ccc(Nc3ncc(F)c(-c4cc(F)c5nc(C)n(C(C)C)c5c4)n3)nc2)CC1")
"> 20 µM"

---

- Test System: Serine/threonine-protein kinase PLK3 (Homo sapiens, UniProt Q9H4B4)
- Sequence (Q9H4B4 whole entry): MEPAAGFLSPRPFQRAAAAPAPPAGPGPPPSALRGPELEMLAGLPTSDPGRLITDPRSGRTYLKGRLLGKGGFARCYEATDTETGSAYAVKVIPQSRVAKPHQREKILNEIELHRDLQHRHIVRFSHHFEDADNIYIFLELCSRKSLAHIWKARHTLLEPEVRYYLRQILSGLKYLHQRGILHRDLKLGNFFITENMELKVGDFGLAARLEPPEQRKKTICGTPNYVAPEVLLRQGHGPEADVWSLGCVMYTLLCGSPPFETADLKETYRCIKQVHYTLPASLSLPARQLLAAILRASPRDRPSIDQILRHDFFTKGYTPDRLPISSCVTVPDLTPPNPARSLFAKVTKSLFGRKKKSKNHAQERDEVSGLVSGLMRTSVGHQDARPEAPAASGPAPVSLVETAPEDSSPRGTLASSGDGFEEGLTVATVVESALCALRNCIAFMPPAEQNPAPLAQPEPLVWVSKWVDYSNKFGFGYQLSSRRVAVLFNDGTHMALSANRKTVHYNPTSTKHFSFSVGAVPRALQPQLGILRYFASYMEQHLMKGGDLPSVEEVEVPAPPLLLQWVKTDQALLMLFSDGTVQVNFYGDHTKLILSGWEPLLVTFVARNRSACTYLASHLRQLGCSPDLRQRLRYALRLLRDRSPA
pIC50: −log10 of the molar value.
Measure Name: pIC50

>>> meas_value("CCN1CCN(Cc2ccc(Nc3ncc(F)c(-c4cc(F)c5nc(C)n(C(C)C)c5c4)n3)nc2)CC1 [Abemaciclib]")
"< 4.70"

---

- Test System: RAF proto-oncogene serine/threonine-protein kinase (Homo sapiens)
- Sequence (P04049 whole entry): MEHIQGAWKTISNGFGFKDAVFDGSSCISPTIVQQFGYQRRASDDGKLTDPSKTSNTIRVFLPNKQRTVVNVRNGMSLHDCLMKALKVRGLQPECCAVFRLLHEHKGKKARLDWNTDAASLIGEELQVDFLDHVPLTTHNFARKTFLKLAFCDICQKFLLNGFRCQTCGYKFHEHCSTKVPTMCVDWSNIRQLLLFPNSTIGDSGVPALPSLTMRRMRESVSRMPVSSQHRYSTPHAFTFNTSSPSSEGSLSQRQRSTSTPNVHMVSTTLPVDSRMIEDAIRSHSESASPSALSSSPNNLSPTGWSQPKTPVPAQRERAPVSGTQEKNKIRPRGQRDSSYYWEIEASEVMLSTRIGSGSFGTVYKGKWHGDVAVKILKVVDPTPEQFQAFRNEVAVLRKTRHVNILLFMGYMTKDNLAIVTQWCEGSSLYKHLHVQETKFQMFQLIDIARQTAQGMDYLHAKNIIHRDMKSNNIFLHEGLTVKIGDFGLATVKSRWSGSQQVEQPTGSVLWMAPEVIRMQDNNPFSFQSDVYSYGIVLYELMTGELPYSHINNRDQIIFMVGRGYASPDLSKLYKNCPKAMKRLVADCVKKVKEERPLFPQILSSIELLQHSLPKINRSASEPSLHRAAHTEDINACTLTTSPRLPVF
Measure Name: IC50

>>> meas_value("CCN1CCN(Cc2ccc(Nc3ncc(F)c(-c4cc(F)c5nc(C)n(C(C)C)c5c4)n3)nc2)CC1")
"> 20 µM"

---

- Test System: Mitogen-activated protein kinase 3 (Homo sapiens)
- Sequence (P27361 whole entry): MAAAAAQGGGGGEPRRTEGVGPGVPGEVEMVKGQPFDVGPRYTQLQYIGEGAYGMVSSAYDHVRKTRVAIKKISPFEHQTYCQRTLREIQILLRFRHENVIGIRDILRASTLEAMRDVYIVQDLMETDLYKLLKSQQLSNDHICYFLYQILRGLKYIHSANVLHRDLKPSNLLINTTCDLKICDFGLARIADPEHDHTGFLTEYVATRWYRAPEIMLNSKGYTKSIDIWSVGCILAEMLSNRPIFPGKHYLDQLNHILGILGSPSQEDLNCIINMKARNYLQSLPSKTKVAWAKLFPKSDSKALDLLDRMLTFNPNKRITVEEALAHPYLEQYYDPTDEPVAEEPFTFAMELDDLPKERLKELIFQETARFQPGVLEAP
- Assay Protocol: Inhibition of ERK1 (unknown origin)
pIC50: −log10 of the molar value.
Measure Name: pIC50

>>> meas_value("CCN1CCN(Cc2ccc(Nc3ncc(F)c(-c4cc(F)c5nc(C)n(C(C)C)c5c4)n3)nc2)CC1")
"< 4.70"
